TEST SYSTEM: T1, human CD4 on the surface of SKW3 cells or human PBMCs (human, UniProt P01730 26-458)
T1 construct: whole, on cells; SKW3 CD4 knockout cells served as the negative cell line; also called hCD4; SKW3 WT
ASSAY INFO: FACS binning on SKW3 cells; competitor OKT4-Alexa Fluor 488 (its signal read); background 2163, max binding 8200
Response field label takes True when OKT4 A488 signal is strictly below 3000 and False in all other cases.

Solved cases below.
BINDER	ANSWER LABEL
75110_12H17A (antibody, V domains shown, Tested here as non-clonal hybridoma supernatant from AlivaMab Mouse Kappa mice (detected with anti-mouse Fc and anti-human kappa)) VH: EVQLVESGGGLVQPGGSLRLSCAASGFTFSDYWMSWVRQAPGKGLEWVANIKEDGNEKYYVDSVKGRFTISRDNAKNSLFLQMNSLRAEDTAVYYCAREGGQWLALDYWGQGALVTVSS VL: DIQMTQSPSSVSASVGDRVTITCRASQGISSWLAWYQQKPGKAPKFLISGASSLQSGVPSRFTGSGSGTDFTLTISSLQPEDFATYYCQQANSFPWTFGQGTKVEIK	False
75110_01A06A (antibody, V domains shown, Tested here as non-clonal hybridoma supernatant from AlivaMab Mouse Kappa mice (detected with anti-mouse Fc and anti-human kappa)) VH: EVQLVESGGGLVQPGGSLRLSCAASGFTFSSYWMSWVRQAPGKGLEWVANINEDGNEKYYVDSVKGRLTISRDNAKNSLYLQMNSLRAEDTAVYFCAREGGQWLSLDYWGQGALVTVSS VL: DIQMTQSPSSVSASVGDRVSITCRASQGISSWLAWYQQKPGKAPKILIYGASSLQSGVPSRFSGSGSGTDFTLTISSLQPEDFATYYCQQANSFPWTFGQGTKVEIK	True
75110_05B13A (antibody, V domains shown, Tested here as non-clonal hybridoma supernatant from AlivaMab Mouse Kappa mice (detected with anti-mouse Fc and anti-human kappa)) VH: QVLLEQWGAGLLKPSETLSLTCAVYGGSFSGYYWTWIRQPPGKGLEWIGEINHRGSTNYNPSLKSRVTISIDTSKNQFSLKVKSVTAADTAMYYCTRPDSNWFDPWGQGTLVTVSS VL: DIQMTQSPSSVSASVGDRVTITCRASQDISNWLAWYQQKPGKAPKLLIFAASSLQSGVPSRFSGSGSGTDFTLTISSLQPEDFATYYCQQANSFPLTFGGGTKVEIK	False
75110_01J09A (antibody, V domains shown, Tested here as non-clonal hybridoma supernatant from AlivaMab Mouse Kappa mice (detected with anti-mouse Fc and anti-human kappa)) VH: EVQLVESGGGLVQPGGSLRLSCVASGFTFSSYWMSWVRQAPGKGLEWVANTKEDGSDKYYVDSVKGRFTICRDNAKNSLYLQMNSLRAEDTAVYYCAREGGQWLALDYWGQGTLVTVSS VL: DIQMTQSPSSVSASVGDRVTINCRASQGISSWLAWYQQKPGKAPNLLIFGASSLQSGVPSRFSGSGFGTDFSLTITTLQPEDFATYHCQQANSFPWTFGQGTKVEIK	True
75110_09N20A (antibody, V domains shown, Tested here as non-clonal hybridoma supernatant from AlivaMab Mouse Kappa mice (detected with anti-mouse Fc and anti-human kappa)) VH: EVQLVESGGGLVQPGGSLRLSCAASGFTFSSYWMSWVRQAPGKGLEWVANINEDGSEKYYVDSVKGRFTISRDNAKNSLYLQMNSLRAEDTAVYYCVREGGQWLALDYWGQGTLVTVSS VL: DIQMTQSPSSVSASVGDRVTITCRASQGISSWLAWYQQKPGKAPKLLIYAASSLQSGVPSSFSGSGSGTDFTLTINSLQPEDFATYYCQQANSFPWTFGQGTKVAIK	True

IN: Given 75110_04P08A (antibody, V domains shown, Tested here as non-clonal hybridoma supernatant from AlivaMab Mouse Kappa mice (detected with anti-mouse Fc and anti-human kappa)) VH: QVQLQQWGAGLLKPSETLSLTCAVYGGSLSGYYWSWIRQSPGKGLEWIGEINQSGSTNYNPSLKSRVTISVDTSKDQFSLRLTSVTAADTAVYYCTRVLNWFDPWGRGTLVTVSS VL: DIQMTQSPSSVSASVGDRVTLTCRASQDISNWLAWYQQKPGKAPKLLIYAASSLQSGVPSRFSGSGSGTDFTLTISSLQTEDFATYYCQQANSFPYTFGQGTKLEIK , is recorded OKT4 A488 signal strictly lower than 3000?
OUT: False

IN: Now this one: 75110_11D03A (antibody, V domains shown, Tested here as non-clonal hybridoma supernatant from AlivaMab Mouse Kappa mice (detected with anti-mouse Fc and anti-human kappa)) VH: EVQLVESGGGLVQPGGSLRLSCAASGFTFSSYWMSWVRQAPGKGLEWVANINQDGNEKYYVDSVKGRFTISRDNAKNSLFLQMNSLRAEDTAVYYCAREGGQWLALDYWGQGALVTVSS VL: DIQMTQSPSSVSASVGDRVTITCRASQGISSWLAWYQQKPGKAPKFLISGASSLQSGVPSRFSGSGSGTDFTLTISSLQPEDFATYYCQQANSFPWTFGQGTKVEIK
OUT: False

IN: Now this one: 75110_03C01A (antibody, V domains shown, Tested here as non-clonal hybridoma supernatant from AlivaMab Mouse Kappa mice (detected with anti-mouse Fc and anti-human kappa)) VH: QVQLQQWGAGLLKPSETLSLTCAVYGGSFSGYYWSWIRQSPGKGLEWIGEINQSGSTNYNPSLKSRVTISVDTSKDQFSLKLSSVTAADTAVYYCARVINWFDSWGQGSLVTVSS VL: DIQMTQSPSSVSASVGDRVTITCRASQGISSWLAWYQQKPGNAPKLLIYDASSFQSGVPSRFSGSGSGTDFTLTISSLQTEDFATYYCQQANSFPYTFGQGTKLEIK
OUT: False
